experiment: GST conjugation of alachlor with glutathione (HPLC); assay type: biochemical; conditions: purified enzyme, 0.4 mM electrophilic substrate, 4 mM glutathione, 0.1 M MOPS pH 7.0
parameter-measured: activity of enzyme with Alachlor (nmol/min/mg)

molecule	parameter-measured	result
m.15.5.d06.sk20: maize class II GST enzyme encoded by cDNA clone, expressed in E. coli (protein) MAEVEATVGRLMLYSYWRSSCSHRARIALNLKGVDYEYKAVNLLKGEQSDPEFVKLNPMKFVPALVDGSSVIGDSYAITLYLEDKYPEPPLLPQDLQKKALNHQIASIVASGIQPLHNLTVLRFIDQKVGAGESVLWTQQQIERGFTAIENLIQLKGCAGKYATGDEVQLADVFLAPQIYAAIERTKIDMSNYLTLARLHSEYMSHPAFEAALPGKQPDAPSSS	activity of enzyme with Alachlor	0
